# System name: human TRH-DE (Homo sapiens)
# Sequence (Q9UKU6 1-1069): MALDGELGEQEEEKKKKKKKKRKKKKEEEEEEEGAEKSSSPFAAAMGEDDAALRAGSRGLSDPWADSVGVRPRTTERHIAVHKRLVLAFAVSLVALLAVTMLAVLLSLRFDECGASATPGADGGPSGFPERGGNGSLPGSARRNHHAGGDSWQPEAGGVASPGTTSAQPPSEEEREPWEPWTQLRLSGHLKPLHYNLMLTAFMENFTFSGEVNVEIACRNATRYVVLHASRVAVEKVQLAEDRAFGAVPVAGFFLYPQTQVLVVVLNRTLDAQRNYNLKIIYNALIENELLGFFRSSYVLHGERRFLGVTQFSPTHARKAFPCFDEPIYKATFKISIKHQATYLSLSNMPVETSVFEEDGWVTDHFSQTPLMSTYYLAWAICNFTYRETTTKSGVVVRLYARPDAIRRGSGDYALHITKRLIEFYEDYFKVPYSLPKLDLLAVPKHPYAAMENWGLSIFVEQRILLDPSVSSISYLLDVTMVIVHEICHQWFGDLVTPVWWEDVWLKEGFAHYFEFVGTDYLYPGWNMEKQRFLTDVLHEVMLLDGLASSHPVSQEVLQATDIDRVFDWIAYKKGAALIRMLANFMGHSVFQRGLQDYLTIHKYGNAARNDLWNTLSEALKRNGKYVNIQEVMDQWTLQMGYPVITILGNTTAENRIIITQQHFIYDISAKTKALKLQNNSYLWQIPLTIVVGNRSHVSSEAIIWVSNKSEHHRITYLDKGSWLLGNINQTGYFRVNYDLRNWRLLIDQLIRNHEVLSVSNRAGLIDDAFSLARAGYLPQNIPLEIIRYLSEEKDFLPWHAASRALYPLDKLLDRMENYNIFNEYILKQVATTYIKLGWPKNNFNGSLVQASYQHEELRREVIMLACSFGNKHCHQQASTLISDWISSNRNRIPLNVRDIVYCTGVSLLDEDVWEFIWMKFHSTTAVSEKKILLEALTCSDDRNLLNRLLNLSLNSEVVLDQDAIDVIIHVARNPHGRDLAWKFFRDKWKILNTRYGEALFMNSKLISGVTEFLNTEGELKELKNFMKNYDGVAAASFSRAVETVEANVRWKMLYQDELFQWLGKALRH
pIC50: −log10 of the molar value.
Property measured: pIC50

COc1ccc(S(=O)(=O)N2CC3(CC(N4C(=O)c5cccnc5OCC4C)C3)C2)cc1 (racemic) [Example 75]
6.92
C[C@@H]1Cn2cnc(C3CC3)c2C(=O)N1C1CC2(C1)CN(S(=O)(=O)c1ccccc1F)C2 [Example 328]
7.85
C[C@@H]1CNc2cccnc2C(=O)N1C1CC2(C1)CN(S(=O)(=O)c1ccccc1F)C2 [Example 338]
8.40
CC[C@@H]1COc2ncc(F)cc2C(=O)N1C1CC2(C1)CN(S(=O)(=O)c1ccccc1F)C2 [Example 41]
7.15
